- protocol-text: in vivo;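 also: Single-dose crossover across four periods with one-week washout, plasma drug levels quantified by LC-MS/MS in positive ESI mode, lower quantification limit 0.2 ng/mL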
- condition-description: both, Beagle, dog, plasma, 1 mg
assay-metric: Cmax (µg/mL)
Numeric only. Scale: µg/mL

Prompt: GET /values?readout=Cmax&item= "Cc1nc2n(c(=O)c1CCN1CCC(c3noc4cc(F)ccc34)CC1)CCCC2"
Response: 0.0526

====

- protocol-text: in vivo
- condition-description: both, Beagle, dog, plasma, 1 mg
assay-metric: half-life (min)
// note: answer is a bare numeric in min

Prompt: Would you mind telling me what half-life value was observed for "Cc1nc2n(c(=O)c1CCN1CCC(c3noc4cc(F)ccc34)CC1)CCCC2" ?
Response: 72.6

====

- protocol-text: in vivo
- condition-description: both, Beagle, dog, plasma, 1 mg
assay-metric: Vd
Lab note: write values as number then unit, every time.

Prompt: Please look up its Vd: "Cc1nc2n(c(=O)c1CCN1CCC(c3noc4cc(F)ccc34)CC1)CCCC2"
Response: 17.8 L

Sourced from paper PMC7008171
